Target Under Test: human muscarinic M4 receptor (Homo sapiens)
Construct: expressed in transfected cells
Sequence (P08173 1-479): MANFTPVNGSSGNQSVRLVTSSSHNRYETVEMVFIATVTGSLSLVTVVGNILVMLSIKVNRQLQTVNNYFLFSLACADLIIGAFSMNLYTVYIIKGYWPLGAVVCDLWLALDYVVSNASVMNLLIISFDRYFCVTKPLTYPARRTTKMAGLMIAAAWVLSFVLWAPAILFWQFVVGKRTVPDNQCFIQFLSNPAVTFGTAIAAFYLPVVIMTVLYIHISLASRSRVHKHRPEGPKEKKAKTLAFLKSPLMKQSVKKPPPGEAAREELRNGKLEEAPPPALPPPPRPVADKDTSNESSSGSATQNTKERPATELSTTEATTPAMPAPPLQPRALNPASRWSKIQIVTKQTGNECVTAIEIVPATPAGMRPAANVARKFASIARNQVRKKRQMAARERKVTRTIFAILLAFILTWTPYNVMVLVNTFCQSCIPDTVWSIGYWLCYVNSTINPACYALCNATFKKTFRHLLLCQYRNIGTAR
Assay Name: Phospho-ERK1/2 assay, muscarinic M4
Assay type: cell-based
Details: CHO cells expressing human M4; phospho-ERK1/2 Alphascreen; read-out: pEC50 M4 (converted)
Readout Label: EC50 (nM)

Compound: C#CCOC(=O)N1CCCC(N2CCC(C(=O)NCC(C)C)CC2)CC1 (centres unmarked)
Target Under Test: human muscarinic M4 receptor (Homo sapiens)
Quantitative Readout: 417
--
Compound: CCOC(=O)N1CCC[C@@H](N2CCC(C(=O)NC(C)(C)C)CC2)CC1
Target Under Test: human muscarinic M4 receptor (Homo sapiens)
Quantitative Readout: 3720

a. CCOC(=O)N1CCCC(N2CCC(C#N)(C(=O)NC3(C)CCC3)CC2)CC1 (centres unmarked)
b. CCOC(=O)N1CCC[C@@H](N2CCC(C(=O)NCC(C)C)CC2)CC1
c. CCOC(=O)N1CCCC(N2CCC(F)(C(=O)NCC3CC3)CC2)CC1 (centres unmarked)
Rank items: key EC50, increasing. Form entry: ranked labels (order as requested).
c, a, b

====

pEC50 for assorted molecules
Target Under Test: human muscarinic M1 receptor (Homo sapiens, UniProt P11229)
Sequence (P11229 whole entry): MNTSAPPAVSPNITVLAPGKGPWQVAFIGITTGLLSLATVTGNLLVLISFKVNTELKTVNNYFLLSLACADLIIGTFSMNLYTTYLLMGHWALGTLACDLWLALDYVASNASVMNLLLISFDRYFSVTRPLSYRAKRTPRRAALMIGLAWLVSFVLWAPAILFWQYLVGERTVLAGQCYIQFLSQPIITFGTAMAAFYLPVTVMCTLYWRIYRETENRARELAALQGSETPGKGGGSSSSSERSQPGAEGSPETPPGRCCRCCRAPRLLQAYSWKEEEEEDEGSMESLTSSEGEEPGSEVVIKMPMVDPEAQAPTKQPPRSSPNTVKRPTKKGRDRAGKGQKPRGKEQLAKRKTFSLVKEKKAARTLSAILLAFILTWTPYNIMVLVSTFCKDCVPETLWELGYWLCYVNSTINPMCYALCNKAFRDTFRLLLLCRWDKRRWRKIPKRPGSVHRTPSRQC
Assay Name: Phospho-ERK1/2 assay, muscarinic M1
Format: cell-based
Experimental: Functional assays were performed using the Alphascreen Surefire phospho-ERK1/2 assay (Crouch & Osmond, Comb. Chem. High Throughput Screen, 2008). […] Plates were incubated for 2 h with gentle agitation in the dark and then read on a PHERAstar plate reader. pEC50 and Emax figures were calculated from the resulting data for each receptor subtype.
Reminder that pEC50 is minus the log10 of a molar concentration.

Molecule: CCOC(=O)N1CCC[C@H](N2CCC(C(=O)NC3(C)CCC3)CC2)CC1 [Example 65]
Quantitative Readout: 7.50

# next molecule below
response.value for CCOC(=O)N1CCCC(N2CCC(C(=O)NC3(C)CCC3)CC2)CC1 (centres unmarked) [Example 27] (field: pEC50) = 7.34

====

Target Under Test: UniProt:P11229
Assay Name: Phospho-ERK1/2 assay, muscarinic M1
Type: cell-based
Details: CHO cells expressing human M1; phospho-ERK1/2 Alphascreen; read-out: pEC50 M1 (converted)
Readout Label: EC50 (nM)

Compound: CCOC(=O)N1CCCC(N2CCC(C(=O)NC3CCCC3)CC2)CC1 (stereo not drawn) [Example 30]
Unit Name: nM
EC50: 57.5
--
Compound: CCOC(=O)N1CCCC(N2CCC(C(=O)NCC(C)(C)C)CC2)CC1 (stereo not drawn) [Example 9]
Unit Name: nM
EC50: 117
--
Compound: C#CCOC(=O)N1CCCC(N2CCC(C(=O)NCC(C)C)CC2)CC1 (stereo not drawn) [Example 57]
Unit Name: nM
EC50: 93.3
--
Compound: CCOC(=O)N1CCCC(N2CCC(F)(C(=O)NCC(C)C)CC2)CC1 (stereo not drawn) [Example 40]
Unit Name: nM
EC50: 45.7
--
Compound: CCOC(=O)N1CCCC(N2CCC(F)(C(=O)NCC3CCCC3)CC2)CC1 (stereo not drawn) [Example 53]
Unit Name: nM
EC50: 97.7

1. CCOC(=O)N1CCC[C@@H](N2CCC(C(=O)NCC(C)C)CC2)CC1 [Example 64]
2. CCOC(=O)N1CCCC(N2CCC(C(=O)NCC3(CC)CCC3)CC2)CC1 (stereo not drawn) [Example 37]
3. CCOC(=O)N1CCCC(N2CCC(F)(C(=O)NC(C)(C)CC)CC2)CC1 (stereo not drawn) [Example 41]
4. CCOC(=O)N1CCC(N2CCC(C(=O)NC(C)(C)C(C)C)CC2)CC1 [Example 3]
Rank items: key EC50, increasing. Form entry: ranked labels (order as requested).
2, 3, 1, 4
(2: 13.8 nM, 3: 39.8 nM, 1: 107 nM, 4: 200 nM)

Source: patent US10973832B2
